Target: RRM tandem Q135A (human, UniProt Q07955 1-196, Q135A)
Sequence (Q07955 1-196 Q135A): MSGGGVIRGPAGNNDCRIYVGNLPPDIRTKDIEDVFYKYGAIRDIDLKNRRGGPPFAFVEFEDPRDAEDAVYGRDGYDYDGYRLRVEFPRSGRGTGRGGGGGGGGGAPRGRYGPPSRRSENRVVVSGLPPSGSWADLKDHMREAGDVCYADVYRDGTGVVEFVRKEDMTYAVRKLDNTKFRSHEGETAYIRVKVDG
Assay: FP; FP, 10 nM RNA, 37 C 30 min then 25 C 10 min; 21-mers: 25 mM KCl, 0.25 M Arg/Glu, 20 mM Tris-HCl pH 7.5, 0.1 mM EDTA, 0.1 mM TCEP, 0.02% Tween 20; 8-mers: 35 mM
Settings: protein: recombinant; tags: SUMO; label: 5' fluorescein; G-quadruplex (parallel)

| BINDER | DISPLAY UNIT | Kd |
| --- | --- | --- |
| GGGGGCUGGGCGGGGACCGGG (structured_RNA) [ARPC2 GQ] | nM | 350 |
